- Test details: gradient 5% acetonitrile 3 min, to 50% in 2 min, to 85% in 15 min, held 3 min, 100 µL/min
- Experimental context: column: Zorbax Extend-C18 2.1 x 50 mm; eluents: water / acetonitrile, 0.1% formic acid
# label = T if RP-LC retention time >= 800 s else F

Answered examples (8):
Cc1ccc(CN2CCN(C3CCN(C(=O)NCc4ccc(F)cc4)CC3)C(=O)C2=O)cc1 :: F
O=C1C(c2cccnc2)N(CC2CCCCC2)C(=O)CN1c1ccccc1 (stereo unspecified) :: F
Cc1ccc2[nH]cc(CCNC(=O)Nc3ccc(Cl)cc3)c2c1 :: T
O=C(NC1CC1)c1ccc(N2CCC(NCc3ccc(Cl)cc3)C2)nc1 (stereo unspecified) :: F
CCc1nc(OCC(=O)N(C)c2ccccc2)c2ccccc2n1 :: F
CN(C)c1ccc(N2CCC(C(=O)NCCc3c[nH]c4ccccc34)CC2)nn1 :: F
Cc1ccc2c(c1)OCC(=O)N2Cc1nc(-c2ccc3c(c2)OCO3)no1 :: T
CCn1cc(CCN2CCN(S(=O)(=O)c3ccc(C)c(F)c3)CC2)c2cccnc21 :: F

# check: RP-LC retention time of `O=C(NCCc1ccccc1)c1nnc(-c2ccc(S(=O)(=O)N3CCCCC3)cc2)o1` is greater than or equal to 800 s
T

# check: RP-LC retention time of `O=C(Cn1c(=O)oc2ccc(C(=O)N3CCCC3)cc21)N1CCN(c2cccc(Cl)c2)CC1` is greater than or equal to 800 s
T

----------
- Test details: gradient 5% acetonitrile 3 min, to 50% in 2 min, to 85% in 15 min, held 3 min, 100 µL/min
- Experimental context: column: Zorbax Extend-C18 2.1 x 50 mm; eluents: water / acetonitrile, 0.1% formic acid
Catalogue of compounds with associated RP-LC retention time
// units = s; emit number, no label

Solved cases below.
COc1ccc(OC)c(NC(=O)CN2C(=O)C(C)(C)c3cc(C)ccc32)c1 :: 915
CCCN(CC1CCOC1)C(=O)c1ccc(F)cc1Cl (stereo unspecified) :: 773
Cc1cc2c(c(=O)n(-c3ccccc3)c(=O)n2CC(=O)Nc2ccc(Br)cc2F)n1C :: 894
Cc1cc2[nH]c(C(=O)Nc3ccc(Cl)cc3C)c(CN(C)C)c2s1 :: 704
CCC1CCCCN1CCCNC(=O)C1CCCN(c2nccnc2Sc2ccccc2)C1 (stereo unspecified) :: 714

Write down RP-LC retention time measured for item Cc1c(Cl)cccc1NC(=O)NC1CCN(c2cc(N3CCCC3)cnn2)C1 (stereo unspecified)
668

----------
- Test details: gradient 5% acetonitrile 3 min, to 50% in 2 min, to 85% in 15 min, held 3 min, 100 µL/min
- Experimental context: column: Zorbax Extend-C18 2.1 x 50 mm; eluents: water / acetonitrile, 0.1% formic acid
# label = t if RP-LC retention time >= 800 s else f

Answered examples (4):
O=C(CC1CCCC1)Nc1cnc(-c2ccccc2)nc1 :: t
Cc1ccc(-n2c(=O)c3c(cc(C)n3C)n(CC(=O)Nc3ccccc3)c2=O)cc1 :: t
CC(C)n1c(=O)sc2cc(S(=O)(=O)N3CCC(C(=O)Nc4cccc(C#N)c4)CC3)ccc21 :: f
CCC(C(=O)NCCN1CCCC1)n1c2ccccc2c2cnn(C)c(=O)c21 (stereo not given) :: f

Now turn to the next compound.
# check: RP-LC retention time of `Cc1nn(CC(=O)N2CCN(c3ccc(F)cc3)CC2)c(=O)c2noc(C)c12` is greater than or equal to 800 s
f

----------
Catalogue of compounds with associated RP-LC retention time
- Test details: gradient 5% acetonitrile 3 min, to 50% in 2 min, to 85% in 15 min, held 3 min, 100 µL/min
- Experimental context: column: Zorbax Extend-C18 2.1 x 50 mm; eluents: water / acetonitrile, 0.1% formic acid
// units = s; emit number, no label

CC(C)(C)NC(=O)C1CCN(S(C)(=O)=O)c2cc(Cl)ccc2O1 (stereo unspecified) :: 898
CC(C)Cn1nc2n(c1=O)CCN(S(=O)(=O)c1ccccc1C(F)(F)F)CC2 :: 847
CCOc1ccccc1-c1csc(NC(=O)Cc2csc(C)n2)n1 :: 943
CC1(C(=O)NCc2ccc(F)cc2)CCCN(C(=O)Nc2ccc(Br)cc2F)C1 (stereo unspecified) :: 1030
CCCNC(=O)C1CCCN(c2nc(C)nc3onc(C)c23)C1 (stereo unspecified) :: 690

Write down RP-LC retention time measured for item `Cc1ccc(-c2cnn3c(N4CCN(c5cccc(C)n5)CC4)cc(C)nc23)cc1`
776

----------
- Test details: gradient 5% acetonitrile 3 min, to 50% in 2 min, to 85% in 15 min, held 3 min, 100 µL/min
- Experimental context: column: Zorbax Extend-C18 2.1 x 50 mm; eluents: water / acetonitrile, 0.1% formic acid
Property measured: RP-LC retention time (s)
// units = s; emit number, no label

Solved cases below.
COc1ccc(-c2noc(CN3C(=O)COc4cc(C)ccc43)n2)cc1OC :: 954
COc1ccc(N2CCN(C3CC(=O)N(Cc4ccc(N5CCCC5=O)cc4)C3=O)CC2)cc1 (centres undefined) :: 662
CCn1c(=O)n(Cc2cccnc2)c(=O)c2cnc(-c3ccc(OC)cc3)nc21 :: 762
O=C(NCc1ccc(N2CCCC2)nc1)c1cccc(Br)c1 :: 646

Write down RP-LC retention time measured for item CC1Oc2ccc(-c3csc(NC(=O)c4ccccc4)n3)cc2N(C)C1=O (centres undefined)
970

Write down RP-LC retention time measured for item `Cn1cccc1C(=O)C(=O)NCc1ccc(Cl)cc1`
906

Write down RP-LC retention time measured for item `Cc1cc(N2CCCC2)nc(N2CCN(C(=O)c3ccc(Br)cc3)CC2)n1`
713

Write down RP-LC retention time measured for item `COc1ccc(NC(=O)Cc2csc3nc(-c4ccccc4)cn23)cc1`
751

Write down RP-LC retention time measured for item `COc1ccc2c(c1O)[C@]13CCN(C)[C@H](C2)[C@@H]1CCC(=O)C3`
622

----------
Catalogue of molecules with associated RP-LC retention time
- Test details: gradient 5% acetonitrile 3 min, to 50% in 2 min, to 85% in 15 min, held 3 min, 100 µL/min
- Experimental context: column: Zorbax Extend-C18 2.1 x 50 mm; eluents: water / acetonitrile, 0.1% formic acid
Remember to follow the number with its unit.

Solved cases below.
CCn1ccc2c(cc(C(=O)Nc3ccc4c(c3)OCCO4)n2C)c1=O :: 721 s
COC(=O)C1=CN(c2ccccc2)c2cc(F)c(F)cc2S1(=O)=O :: 858 s

Lab note: next molecule to report on.
Write down RP-LC retention time measured for item CCCN(CC1CCOC1)C(=O)Nc1ccc(CC)cc1 (stereo not drawn)
811 s

----------
- Test details: gradient 5% acetonitrile 3 min, to 50% in 2 min, to 85% in 15 min, held 3 min, 100 µL/min
- Experimental context: column: Zorbax Extend-C18 2.1 x 50 mm; eluents: water / acetonitrile, 0.1% formic acid
Catalogue of molecules with associated RP-LC retention time
// units = s; emit number, no label

COc1ccc(CCNC(=O)C2CCCN(c3ncnc4c3nc3n4CCCCC3)C2)c(OC)c1 (stereo unspecified) :: 778
Cn1cc(C(=O)Nc2cccc(Cl)c2)c2nn(-c3ccccc3)c(=O)c-2c1 :: 1040
CCNC(=O)c1cc(N2CCCC2)nc2ccccc12 :: 841
CCCc1ccc(S(=O)(=O)N(C)CC2CCOCC2)cc1 :: 1020
CCOC(=O)c1ccc(OCCC2CCN(c3ccc(C)nn3)CC2)cc1 :: 837

Lab note: next molecule to report on.
Write down RP-LC retention time measured for item `Cc1c(Cl)cccc1NC(=O)C(=O)NCC1(c2ccc(F)cc2)CC1`
1110

----------
- Test details: gradient 5% acetonitrile 3 min, to 50% in 2 min, to 85% in 15 min, held 3 min, 100 µL/min
- Experimental context: column: Zorbax Extend-C18 2.1 x 50 mm; eluents: water / acetonitrile, 0.1% formic acid
Property measured: RP-LC retention time (s)
// units = s; emit number, no label

CCCS(=O)(=O)N1CC(c2nnc(-c3ccncc3)o2)C2(CCOCC2)C1 (stereo not drawn) :: 625
Cc1cccc(Cl)c1NC(=O)CN1C(=O)NC2(CCC(C)CC2)C1=O (stereo not drawn) :: 805

Write down RP-LC retention time measured for item `Cc1ccc(C)c(N2CCN(C(=O)Cn3c(=O)c4nncn4c4ncccc43)CC2)c1`
790

----------
- Test details: gradient 5% acetonitrile 3 min, to 50% in 2 min, to 85% in 15 min, held 3 min, 100 µL/min
- Experimental context: column: Zorbax Extend-C18 2.1 x 50 mm; eluents: water / acetonitrile, 0.1% formic acid
Catalogue of compounds with associated RP-LC retention time
Remember to follow the number with its unit.

Cc1nnc2ccc(N3CCN(C(=O)Cc4cccc5ccccc45)CC3)nn12 :: 660 s
CCn1ccc(C(=O)Nc2ccc(OCc3nnc(-c4ccc(Cl)cc4)o3)cc2)n1 :: 1010 s
COc1ccccc1NC(=O)N1C[C@@H](F)C[C@H]1C(=O)N1CCOCC1 :: 625 s
CC1CC(C)CN(CCCNC(=O)Cn2c(=O)c3cccn3c3ccccc32)C1 (stereo not given) :: 620 s
Cc1ccc(NC(=O)N2CC(n3ccnc3)C2)cc1C :: 604 s

Write down RP-LC retention time measured for item CCN(CC)C(=O)c1cc2c(s1)CCC(C(=O)Nc1ccc3c(c1)OCCO3)C2 (stereo not given)
775 s

Write down RP-LC retention time measured for item `CCc1ccc(C2=C(C)C(N3CCCN(C(=O)C(C)(C)CC)CC3)=NS2(=O)=O)cc1`
935 s

Write down RP-LC retention time measured for item COCCCN(CC(=O)N1CCc2sccc2C1COc1ccccc1F)C(C)=O (stereo not given)
764 s

Write down RP-LC retention time measured for item `Cc1oc2cc3oc(=O)c(CC(=O)N[C@@H](Cc4c[nH]c5ccccc45)C(=O)O)c(C)c3cc2c1C`
863 s

Write down RP-LC retention time measured for item `Cn1cc(C(=O)NCCN2CCCCC2)c(S(=O)(=O)N2CCN(c3ccc(Cl)cc3)CC2)n1`
728 s

Write down RP-LC retention time measured for item `COc1ccc(-c2nc3ccccn3c2Nc2ccccc2C)cc1`
721 s

Write down RP-LC retention time measured for item `CCOC(=O)N1CCN(C(=O)c2cccc(-n3cnnn3)c2)CC1`
619 s

Write down RP-LC retention time measured for item Cc1ccc(-c2ccc(N3CCCC(C(=O)N4CCC(C(N)=O)CC4)C3)nn2)cc1C (stereo not given)
622 s

Write down RP-LC retention time measured for item `CC(C)c1c(C(=O)O)nnn1Cc1ccccc1`
720 s

Write down RP-LC retention time measured for item CC1(C(=O)NCc2ccc(F)cc2)CCCN(C(=O)NCc2ccccc2)C1 (stereo not given)
829 s

Data credit: the METLIN SMRT retention time set (Domingo-Almenara et al. 2019)
